Source listed as the supplement of paper PMC8612539.

# Tested on: Histophilus somni
# assay-summary: minimum inhibitory concentration (MIC)
# conditions: isolate (source animal id): 14
measured-property: minimum inhibitory concentration

1. COc1cc(Cc2cnc(N)nc2N)cc(OC)c1OC.Cc1cc(NS(=O)(=O)c2ccc(N)cc2)no1 ... > 2 µg/mL
2. CC[C@H]1OC(=O)C[C@@H](O)[C@H](C)[C@@H](O[C@@H]2O[C@H](C)[C@@H](O)[C@H](N(C)C)[C@H]2O)[C@@H](CCN2C[C@H](C)C[C@H](C)C2)C[C@@H](C)C(=O)/C=C/C(C)=C/[C@@H]1CO[C@@H]1O[C@H](C)[C@@H](O)[C@@H](OC)[C@H]1OC ... ≤ 2 µg/mL
3. CO/N=C(\C(=O)N[C@@H]1C(=O)N2C(C(=O)O)=C(CSC(=O)c3ccco3)CS[C@H]12)c1csc(N)n1 ... ≤ 0.25 µg/mL

minimum inhibitory concentration recorded for this compound, CC[C@H]1OC(=O)C[C@@H](O)[C@H](C)[C@@H](O[C@@H]2O[C@H](C)[C@@H](O[C@H]3C[C@@](C)(O)[C@@H](O)[C@H](C)O3)[C@H](N(C)C)[C@H]2O)[C@@H](CC=O)C[C@@H](C)C(=O)/C=C/C(C)=C/[C@@H]1CO[C@@H]1O[C@H](C)[C@@H](O)[C@@H](OC)[C@H]1OC , is 8 µg/mL
